From various publications: pIC50 for Sphingosine kinase 1 (Homo sapiens, UniProt Q9NYA1).
pIC50: −log10 of the molar value.
Measurement Kind: pIC50

CCCCCCCCc1ccc(NC(=O)[C@H]2NC[C@@H](O)[C@@H]2O)cc1	5.08
N[C@@H](CO)[C@H](O)/C=C/CCCCCCCCCCCCCc1ccc(I)cc1	5.40

a. N[C@@H](CO)[C@H](O)/C=C/CCCCCCCCCc1ccc(I)cc1
b. O=C(c1cc([C@H]2CCCN2c2cc(F)cc(F)c2)c2oc(N3CCOCC3)cc(=O)c2c1)N1CCOCC1
Q: Lab note: record which item had the higher pIC50, a or b . Provide the label of your selected option as the answer.
A: a

I. N[C@@H](CO)[C@H](O)/C=C/CCCCCCCCCCCc1ccc(I)cc1
II. O=C(c1ccc(OCc2noc(-c3ccc(C(F)(F)F)cc3)n2)cc1)N1CCC[C@@H]1CO
Q: Given I and II , report the one with the higher recorded pIC50. Please indicate the selected item by its label.
A: I
(I: 5.65, II: 4.75)

###

Listing of IC50 toward Sphingosine kinase 1 (Homo sapiens, UniProt Q9NYA1), each taken from a published source.
Measurement Kind: IC50 (nM)

Example results:
OCC1CCCCN1CCc1ccc(Nc2nc(-c3ccc4ccccc4c3)cs2)cc1 (stereo unspecified)	140
OC[C@H]1C[C@@H](O)CCN1CCc1ccc(Nc2nc(C3CCCC3)cs2)cc1	130
CC1Cc2c(N/N=C/c3ccc(Cl)cc3)ncnc2N(C)c2ccccc21 (stereo unspecified)	12000

1. CCCCCCCCCCCCCC[C@H]1NC[C@H](N)[C@@H]1O
2. OC[C@H]1C[C@@H](O)CCN1CCc1ccc(Nc2nc(-c3ccccc3)cs2)cc1
Q: Lab note: record which item had the higher IC50, 1 or 2 . Respond with the label that goes with your answer.
A: 1
(1: 8890 nM, 2: 70 nM)

###

Several reports have described IC50 for Sphingosine kinase 1 (Homo sapiens, UniProt Q9NYA1); a selection of those results is presented here.
Measurement Kind: IC50 (nM)

A. NCCNC(=O)c1ccc(OCc2noc(-c3ccc(Cl)cc3)n2)cc1
B. OC[C@H]1CCCCN1CCc1ccc(Nc2nc(-c3ccc(Cl)cc3)cs2)cc1
Q: A or B : whose IC50 is greater? // return label of chosen record
A: A
(A: 1470 nM, B: 80 nM)

a. OC[C@H]1CCCCN1CCc1ccc(Nc2nc(-c3ccc4ccccc4c3)cs2)cc1
b. OC[C@H]1C[C@@H](O)CN1CCCc1ccc(Nc2nc(-c3ccc(Cl)c(Cl)c3)cs2)cc1
c. OC[C@@H]1CCCN1CCc1ccc(Nc2nc(-c3ccc4ccccc4c3)cs2)cc1
d. OC[C@H]1C[C@@H](O)CCN1CCc1ccc(Nc2nc(-c3cccc(C(F)(F)F)c3F)cs2)cc1
Q: Which order do these items take when sorted by rising IC50? List them. In plain terms: list the labels in the order you were asked to.
A: d, b, a, c
(d: 5 nM, b: 30 nM, a: 80 nM, c: 990 nM)

I. NC(=O)[C@@H]1CCCN1C(=O)c1ccc(COc2cccc(OCc3ccccc3)c2)cc1
II. OC[C@H]1C[C@@H](O)CCN1CCc1ccc(Nc2nc(-c3ccc(Cl)cc3)cs2)cc1
Q: IC50 comparison. Which is larger, I or II ? Give the chosen item's label as your response.
A: I
(I: 66200 nM, II: 8 nM)

P. CCCCOC(=O)Nc1cccc(C(O)CN2CCN(c3ccncc3)CC2)c1 (centres undefined)
Q. OC[C@H]1C[C@@H](O)CCN1CCCc1ccc(Nc2nc(-c3ccc(Cl)c(Cl)c3)cs2)cc1
R. N[C@@H](CO)[C@H](O)/C=C/CCCCCCCCc1ccc(I)cc1
Q: Hi! Can you put these in order of IC50, lowest number first? Please list the labels in the order you were asked to rank them.
A: R, Q, P
